B1: Osa-1-4 twister ribozyme (parent)
chain: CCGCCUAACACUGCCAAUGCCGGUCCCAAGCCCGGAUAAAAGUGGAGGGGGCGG

Variants of: B1
Assay: self-cleavage, relative activity (ratio to wild type); higher = more cleavage; co-transcriptional
Consider the following variants; for each one, report its self-cleavage.
Give bare numbers.

| Seq | self-cleavage |
| --- | --- |
| CCGCCUAAGACUGCCAAUGCCGGUCCCAAGCCCGGAUAAAAGUGGAGGCGGCGG | 0.06 |
| CCGCCUAACACUGCCAAUGCCGGUCCCAAGCCAGGAUAAAAGUGGGGGGGGCGG | 0.04 |
| CCGCCUAACUCUGCCAAUGCCGAUCCCAAGCCCGGAUAAAAGUGGAGGGGGCGG | 0.03 |

Could you report self-cleavage for every entry in the following list?
1. CCGCCUAACACUGCCAAUGCCGGUCCCAAGCCCGGAUAAAAGUCGAAGGGGCGG
2. CCGCCUAACACUGCCAAUGCCGGUCCCACGCCAGGAUAAAAGUGGAGGGGGCGG
3. CCGCCUAACACUGCCAAUGCCGGUGCCAAGCCCGGAUAAAAGUGGUGGGGGCGG
4. CCGCCUAACACUGCCAAUGCCGGUCCCAAGCCCGGAUAAAAGUUGAAGGGGCGG
5. CCGCCUAACACUACCAAUGCCGGUGCCAAGCCCGGAUAAAAGUGGAGGGGGCGG
6. CCGCCUAACACUGCCAAUGCCGGGCCCAAGCCCGGGUAAAAGUGGAGGGGGCGG

**Result**
1: 0.19; 2: 0.04; 3: 0.04; 4: 0.14; 5: 0.03; 6: 0.04

Could you report self-cleavage for every entry in the following list?
1. CCGCCUAACGCUGCCAAUGCCGGUCCCAAGCCCGCAUAAAAGUGGAGGGGGCGG
2. CCGCCUAACACUGCCACUGCCGGUCCCAAGCCCGGAUAAAAGUGGAGGGAGCGG

**Result**
0.13
0.51
